Test: MRP1 drug-resistance reversers in H69AR cells – cell-based, doxorubicin co-treatment, pilot screen (AID 601)
Details: H69AR cells, CellTiter-Glo, 72 h; compound alone cytotoxicity; at 10 µM
measurement_label: viability (%)
Enter your answer as a number in %; do not include the unit.

// below: answered molecules
molecule | measured_value
CCC(=O)Oc1ccc2c(C)cc(=O)oc2c1C | 90.6
COc1cccc(C(=O)Nc2cc(C)c3c(=O)oc4ccccc4c3n2)c1 | 81.9
Cc1ccc(C)n1-c1ccc(-n2cnnn2)cc1 | 52.4

Task: Request the reported viability associated with N#CC(C(=O)Nc1ccccc1)=C1CCCCC1
Output: 109

Task: Name the recorded viability for CC(=NCC1CCNCC1)C1=C(O)CC(C)(C)CC1=O .
Output: 106

Task: # viability lookup, item CCOC(=O)C1=C(C)NC(=O)NC1c1ccc(Br)s1 (stereo unspecified)
Output: 108

Task: For the molecule Cc1nc2ccccc2c2oc(C(=O)NCC3COc4ccccc4O3)cc12 (stereo unspecified) , what viability is on record?
Output: 88.4

Task: Using the record for Cc1nc2c(-c3ccc(F)cc3)c(C)nn2c(C)c1CCC(=O)NC(C)CCc1ccco1 (stereo unspecified) , report its viability.
Output: 91.2

Task: Sample CCOC(=O)c1cc2c(=O)n3ccccc3nc2n(CC(C)C)c1=NC(=O)c1ccco1 — what was its viability?
Output: 7.19

Task: Quick one: viability of COc1ccc(C(=O)c2coc3ccc(O)c(CN4CCCCC4)c23)cc1 ?
Output: 75.5

Task: If you can, please state the reported viability value of CCCC(=O)N1CC(=O)Nc2ccc(C)cc2C1c1ccc(F)cc1 (stereo unspecified) .
Output: 97.4

Task: Returns the measured viability for the input molecule. Input: O=C(CSc1nnc(Cn2c(=O)sc3ccccc32)n1-c1ccccc1)NCC1CCCO1 (stereo unspecified)
Output: 99.8

Task: Consider the molecule shown here: Cc1cc(=O)oc2c1c(C)nn2-c1ccc(C(=O)OC(C)C)cc1 What is its recorded viability?
Output: 96.9

Task: Which viability value is on record for COc1ccc(C)cc1NC(=O)CNC(=O)Cn1ccc2ccccc2c1=O ?
Output: 92.8

Task: For the molecule shown here, Cc1ccc(-c2nc3cc(NC(=O)C(C)C)ccc3o2)cc1 , give the reported viability.
Output: 82.4

Task: Can you look up the measured viability of CC1(C)CC2CC(C)(CN2S(=O)(=O)c2ccc(N)cc2)C1 (stereo unspecified) for me?
Output: 89.4
